Organism: Mus musculus
Assay: Concentration required for inhibition of nitric oxide production in LPS-activated mouse macrophages
Format: functional
property label: IC50

{"columns": ["compound", "reported value"],
 "data": [
  ["C[C@@H]1CC([C@@H](O)C(C)(C)O)OC2C[C@@]3(C)C(=C21)C[C@H](O)C1[C@@]2(C)CCC(=O)C(C)(C)C2CC[C@@]13C (stereo not given in full)", "15 µM"],
  ["C=C1/C=C/[C@H](C(C)C)CC/C(C)=C/CC1", "58 µM"],
  ["CC(C)C1=CC2C(CC[C@]2(C)O)/C(=C/S(=O)(=O)O)CC1 (stereo not given in full)", "> 100 µM"],
  ["CC(=O)O[C@@H](C[C@@H](C)C1=C2[C@H](O)[C@H](O)C3[C@@]4(C)CCC(=O)C(C)(C)C4CC[C@]3(C)[C@@]2(C)CC1)[C@H]1OC1(C)C (stereo not given in full)", "> 10 µM"],
  ["CC(C)[C@]12CC[C@](C)(O1)C1CC[C@](C)(S(=O)(=O)O)C1[C@@H]2O (stereo not given in full)", "> 100 µM"],
  ["CC(=O)O[C@@H](C[C@@H](C)C1=C2C[C@H](O)C3[C@@]4(C)CCC(=O)C(C)(C)C4CC[C@]3(C)[C@@]2(C)CC1)[C@H](O)C(C)(C)O (stereo not given in full)", "16 µM"],
  ["CC(=O)O[C@@H](C[C@@H](C)C1=C2C=CC3[C@@]4(C)CCC(=O)C(C)(C)C4CC[C@]3(C)[C@@]2(C)CC1=O)[C@H]1OC1(C)C (stereo not given in full)", "8.4 µM"],
  ["CC(=O)O[C@H]([C@@H](O)C[C@@H](C)C1=C2C[C@H](O)C3[C@@]4(C)CCC(=O)C(C)(C)C4CC[C@]3(C)[C@@]2(C)CC1)C(C)(C)O (stereo not given in full)", "> 10 µM"],
  ["N=C(N)NCCSSCCNC(=N)N [GUANIDINOETHYLDISULFIDE]", "1.4 µM"],
  ["C[C@H](C[C@H](O)[C@H]1OC1(C)C)C1=C2C[C@H](O)C3[C@@]4(C)CCC(=O)C(C)(C)C4CC[C@]3(C)[C@@]2(C)CC1 (stereo not given in full)", "> 10 µM"],
  ["CC(=O)O[C@H]1C[C@@H](C)C2=C3C[C@H](O)C4[C@@]5(C)CCC(=O)C(C)(C)C5CC[C@]4(C)[C@@]3(C)C[C@@H]2O[C@H]1C(C)(C)O (stereo not given in full)", "36 µM"],
  ["CNC(=N)NCCC[C@H](N)C(=O)O", "28 µM"],
  ["CC(C)C1=CC2C(CC[C@]2(C)O)[C@@](O)(CO)CC1 (stereo not given in full)", "68 µM"],
  ["C[C@H](C[C@H](O)[C@H](O)C(C)(C)O)C1=C2C[C@H](O)C3[C@@]4(C)CCC(=O)C(C)(C)C4CC[C@]3(C)[C@@]2(C)CC1 (stereo not given in full)", "> 10 µM"],
  ["C[C@H](C[C@H](O)[C@@H](O)C(C)(C)O)C1=C2C[C@H](O)C3[C@@]4(C)CCC(=O)C(C)(C)C4CC[C@]3(C)[C@@]2(C)CC1 (stereo not given in full)", "> 10 µM"],
  ["COC(=O)C(C)(C)C1CC[C@@]2(C)C3[C@H](CC4=C([C@H](C)C[C@H](OC(C)=O)[C@H]5OC5(C)C)CC[C@@]42C)OC(=O)C[C@@]13C (stereo not given in full)", "10 µM"],
  ["CC(=O)O[C@@H](C[C@@H](C)C(=O)CC[C@@]1(C)C(=O)C=CC2[C@@]3(C)CCC(=O)C(C)(C)C3CC[C@@]21C)[C@H]1OC1(C)C (stereo not given in full)", "23 µM"],
  ["C[C@@H]1CC([C@H]2OC2(C)C)OC2C[C@@]3(C)C(=C21)CCC1[C@@]2(C)CCC(=O)C(C)(C)C2CC[C@@]13C (stereo not given in full)", "12 µM"],
  ["C=C1CC[C@@]2(C(C)C)O[C@H]2C2C1CC[C@]2(C)O (stereo not given in full)", "53 µM"],
  ["CC(=O)O[C@@H](C[C@@H](C)C1=C2C[C@@H]3OC(=O)C[C@@]4(C)C(C(C)(C)C(=O)O)CC[C@@](C)(C34)[C@@]2(C)CC1)[C@H]1OC1(C)C (stereo not given in full)", "16 µM"],
  ["C[C@H](CC(=O)CC(C)(C)O)C1=C2CCC3[C@@]4(C)CCC(=O)C(C)(C)C4CC[C@]3(C)[C@@]2(C)CC1=O (stereo not given in full)", "17 µM"],
  ["CC(=O)O[C@@H](C[C@@H](C)C1=C2C[C@H](O)C3[C@@]4(C)CCC(=O)C(C)(C)C4CC[C@]3(C)[C@@]2(C)CC1=O)[C@H]1OC1(C)C (stereo not given in full)", "42 µM"],
  ["CC(=O)O[C@@H](C[C@@H](C)C1=C2[C@H](O)[C@H](O)C3[C@@]4(C)CCC(=O)C(C)(C)C4CC[C@]3(C)[C@@]2(C)CC1=O)[C@H]1OC1(C)C (stereo not given in full)", "9.3 µM"],
  ["C=C1CCC(C(C)C)=CC2C1CC[C@]2(C)O (stereo not given in full)", "23 µM"],
  ["C=C(C)[C@H](O)[C@@H](O)C[C@@H](C)C1=C2C[C@H](O)C3[C@@]4(C)CCC(=O)C(C)(C)C4CC[C@]3(C)[C@@]2(C)CC1 (stereo not given in full)", "> 10 µM"],
  ["CC(=O)O[C@@H](C[C@@H](C)[C@]12O[C@H]1C[C@@]1(C)C2=CC(=O)C2[C@@]3(C)CCC(=O)C(C)(C)C3CC[C@@]21C)[C@H]1OC1(C)C (stereo not given in full)", "> 10 µM"],
  ["CC(C)C1=CC2C(CC[C@]2(C)O)[C@@](O)(CS(=O)(=O)O)CC1 (stereo not given in full)", "> 100 µM"],
  ["CC(=O)O[C@@H](C[C@@H](C)C1=C2C[C@H](O)C3[C@@]4(C)CCC(=O)C(C)(C)C4CC[C@]3(C)[C@@]2(C)CC1)[C@H]1OC1(C)C (stereo not given in full)", "> 10 µM"],
  ["CC(C)C1=CC2C(CC[C@]2(C)O)[C@](C)(O)CC1 (stereo not given in full)", "> 100 µM"],
  ["O=C(/C=C/c1ccc(O)c(O)c1)OCCc1ccccc1", "4 µM"]
]}

----------
Species: Mus musculus
Assay: Inhibition of nitric oxide production in LPS-activated mouse macrophages at a concentration of 3 uM
Assay type: functional
Recorded inhibition at 3 µM by entry
property label: inhibition at 3 µM

{"columns": ["molecule", "reported value"],
 "data": [
  ["C[C@@H]1CC([C@@H](O)C(C)(C)O)OC2C[C@@]3(C)C(=C21)C[C@H](O)C1[C@@]2(C)CCC(=O)C(C)(C)C2CC[C@@]13C (stereo partly drawn)", "14.8%"],
  ["C[C@H](CC(=O)CC(C)(C)O)C1=C2CCC3[C@@]4(C)CCC(=O)C(C)(C)C4CC[C@]3(C)[C@@]2(C)CC1=O (stereo partly drawn)", "17.2%"],
  ["CNC(=N)NCCC[C@H](N)C(=O)O", "2%"],
  ["CC(=O)O[C@@H](C[C@@H](C)C(=O)CC[C@@]1(C)C(=O)C=CC2[C@@]3(C)CCC(=O)C(C)(C)C3CC[C@@]21C)[C@H]1OC1(C)C (stereo partly drawn)", "10.2%"],
  ["CC(=O)O[C@H]1C[C@@H](C)C2=C3C[C@H](O)C4[C@@]5(C)CCC(=O)C(C)(C)C5CC[C@]4(C)[C@@]3(C)C[C@@H]2O[C@H]1C(C)(C)O (stereo partly drawn)", "7.5%"],
  ["C=C1CC[C@@]2(C(C)C)O[C@H]2C2C1CC[C@]2(C)O (stereo partly drawn)", "5%"],
  ["CC(C)C1=CC2C(CC[C@]2(C)O)[C@](C)(O)CC1 (stereo partly drawn)", "-1.8%"],
  ["CC(=O)O[C@@H](C[C@@H](C)C1=C2C[C@H](O)C3[C@@]4(C)CCC(=O)C(C)(C)C4CC[C@]3(C)[C@@]2(C)CC1)[C@H](O)C(C)(C)O (stereo partly drawn)", "10%"]
]}

----------
Species: Mus musculus
Experiment: Inhibition of nitric oxide production in LPS-activated mouse macrophages at a concentration of 1 uM
Assay type: functional

{"columns": ["molecule", "readout units", "inhibition at 1 µM"],
 "data": [
  ["CC(C)C1=CC2C(CC[C@]2(C)O)[C@@](O)(CS(=O)(=O)O)CC1 (stereo partly drawn)", "%", 2.8],
  ["CC(=O)O[C@@H](C[C@@H](C)C1=C2C[C@H](O)C3[C@@]4(C)CCC(=O)C(C)(C)C4CC[C@]3(C)[C@@]2(C)CC1)[C@H]1OC1(C)C (stereo partly drawn)", "%", 0],
  ["C=C1/C=C/[C@H](C(C)C)CC/C(C)=C/CC1", "%", 7.5],
  ["N=C(N)NCCSSCCNC(=N)N [GUANIDINOETHYLDISULFIDE]", "%", 39.1],
  ["C=C1CCC(C(C)C)=CC2C1CC[C@]2(C)O (stereo partly drawn)", "%", 3.4],
  ["CC(=O)O[C@H]([C@@H](O)C[C@@H](C)C1=C2C[C@H](O)C3[C@@]4(C)CCC(=O)C(C)(C)C4CC[C@]3(C)[C@@]2(C)CC1)C(C)(C)O (stereo partly drawn)", "%", -2.9],
  ["CC(=O)O[C@@H](C[C@@H](C)C1=C2C=CC3[C@@]4(C)CCC(=O)C(C)(C)C4CC[C@]3(C)[C@@]2(C)CC1=O)[C@H]1OC1(C)C (stereo partly drawn)", "%", 17.8],
  ["C[C@H](C[C@H](O)[C@@H](O)C(C)(C)O)C1=C2C[C@H](O)C3[C@@]4(C)CCC(=O)C(C)(C)C4CC[C@]3(C)[C@@]2(C)CC1 (stereo partly drawn)", "%", 0.2]
]}
